Test system: subgenomic genotype 2a replicon cell line
procedure.details: HCV replicon assay, genotype 2a
Type: cell-based, HCV genotype 2a
condition.parameters: Hepatitis C virus
pEC50: −log10 of the molar value.
Assign Condition met to entries whose pEC50 meets or exceeds 6; assign Condition not met to the rest.

>>> category("CCN(c1cc2nn(-c3ccc(Cl)cc3)c(C(=O)NC)c2cc1C1CC1)S(C)(=O)=O")
"Condition met"
>>> category("CNC(=O)c1c2cc(C3CC3)c(N(CCN3CCOCC3)S(C)(=O)=O)cc2nn1-c1ccc(Oc2ccc(F)cc2)cc1")
"Condition not met"
>>> category("CCN(c1cc2nn(-c3ccc(Oc4ccc(F)cc4)nc3)c(C(=O)NC)c2cc1C1CC1)S(C)(=O)=O")
"Condition not met"
>>> category("CNC(=O)c1c2cc(C3CC3)c(N(CCCNC(=O)c3ccccc3)S(C)(=O)=O)cc2nn1-c1ccc(Br)cc1")
"Condition met"
>>> category("CNC(=O)c1c2cc(C3CC3)c(N(CCCNS(C)(=O)=O)S(C)(=O)=O)cc2nn1-c1ccc(Br)cc1")
"Condition not met"
>>> category("CNC(=O)c1c2cc(C3CC3)c(N(CCCO)S(C)(=O)=O)cc2nn1-c1ccc(Nc2ccc(F)cc2)cc1")
"Condition met"
>>> category("CNC(=O)c1c2cc(C3CC3)c(N(CCCNC(=O)c3ccoc3)S(C)(=O)=O)cc2nn1-c1ccc(Nc2ccc(F)cc2)cc1")
"Condition not met"
>>> category("CCN(c1cc2nn(-c3ccc(Nc4ccc(F)cc4)cc3)c(C(=O)NC)c2cc1C1CC1)S(C)(=O)=O")
"Condition met"
>>> category("CNC(=O)c1c2cc(C3CC3)c(N(C)S(C)(=O)=O)cc2nn1-c1ccc(Br)cc1")
"Condition met"
>>> category("CNC(=O)c1c2cc(C3CC3)c(N(CCCNC(=O)C(F)(F)F)S(C)(=O)=O)cc2nn1-c1ccc(Br)cc1")
"Condition not met"
>>> category("CNC(=O)c1c2cc(C3CC3)c(N(CCCO)S(C)(=O)=O)cc2nn1-c1ccc(Nc2ccccc2F)cc1")
"Condition met"
>>> category("CNC(=O)c1c2cc(C3CC3)c(N(CCC3COC(C)(C)OC3)S(C)(=O)=O)cc2nn1-c1ccc(Cl)cc1")
"Condition met"

Values from patent US8546389B2
